Where these numbers come from: paper PMC6017322

System name: 5-LO (Homo sapiens)
Experimental protocol: 5-LO activity in a cell-free assay (isolated human recombinant 5-LO, 20 µM arachidonic acid)
Format: biochemical
Parameters: made in house; host or cells: Escherichia coli BL21 (pT3-5-LO plasmid)
Assay context: residual activity at 10 µM; isolated 5-LO, 20 µM arachidonic acid; mean ± SEM, 3–4 experiments; read-out: 5-LO Activity [% Control] cell-free
Measurement name: remaining activity at 10 µM

Given CC(C)[C@@H]1CC[C@]2(C)[C@H](C(=O)C=C3[C@@H]4[C@@H](C)[C@H](C)CC[C@]4(C)CC[C@]32C)[C@@]1(C)CCC(=O)O [compound 7] , state its recorded remaining activity at 10 µM.
73%

Please give the result for CC(C)=CCC[C@H](C(=O)O)[C@@H]1CC[C@]2(C)C3=CC[C@H]4C(C)(C)[C@H](O)CC[C@]4(C)[C@H]3CC[C@@]12C [compound 13] too.
89.6%

Another: CC(=O)O[C@@H]1CC[C@]2(C)C3=C(CC[C@H]2C1(C)C)[C@@]1(C)CC[C@@H]([C@H](CCC=C(C)C)C(=O)O)[C@]1(C)CC3 [compound 17]
75.6%

###

System name: 5-LO (Homo sapiens)
Experimental protocol: 5-LO activity in a cell-free assay (isolated human recombinant 5-LO, 20 µM arachidonic acid)
Type: biochemical
Set-up: made in house; host or cells: Escherichia coli BL21 (pT3-5-LO plasmid)
Assay context: at 10 µM
Measurement name: inhibition at 10 µM (%)
Please reply with the bare figure in % and do not write the unit itself.

Notebook: pull reported inhibition at 10 µM for 5-LO (Homo sapiens), entry `CC(C)=CCC[C@H](C(=O)O)[C@@H]1CC[C@]2(C)C3=C(CC[C@@]12C)[C@@]1(C)CC[C@H](O)C(C)(C)[C@@H]1CC3`
36

And the next one, `CC(C)=CCC[C@H](C(=O)O)[C@@H]1CC[C@]2(C)C3=C(CC[C@@]12C)[C@@]1(C)CC[C@@H](O)C(C)(C)[C@@H]1CC3` ?
34

Note, next up: `CC(C)[C@@H]1CC[C@]2(C)[C@H](C(=O)C=C3[C@@H]4[C@@H](C)[C@H](C)CC[C@]4(C)CC[C@]32C)[C@@]1(C)CCC(=O)O`
27

###

System name: 5-LO (Homo sapiens, UniProt P09917)
Sequence (P09917 whole entry): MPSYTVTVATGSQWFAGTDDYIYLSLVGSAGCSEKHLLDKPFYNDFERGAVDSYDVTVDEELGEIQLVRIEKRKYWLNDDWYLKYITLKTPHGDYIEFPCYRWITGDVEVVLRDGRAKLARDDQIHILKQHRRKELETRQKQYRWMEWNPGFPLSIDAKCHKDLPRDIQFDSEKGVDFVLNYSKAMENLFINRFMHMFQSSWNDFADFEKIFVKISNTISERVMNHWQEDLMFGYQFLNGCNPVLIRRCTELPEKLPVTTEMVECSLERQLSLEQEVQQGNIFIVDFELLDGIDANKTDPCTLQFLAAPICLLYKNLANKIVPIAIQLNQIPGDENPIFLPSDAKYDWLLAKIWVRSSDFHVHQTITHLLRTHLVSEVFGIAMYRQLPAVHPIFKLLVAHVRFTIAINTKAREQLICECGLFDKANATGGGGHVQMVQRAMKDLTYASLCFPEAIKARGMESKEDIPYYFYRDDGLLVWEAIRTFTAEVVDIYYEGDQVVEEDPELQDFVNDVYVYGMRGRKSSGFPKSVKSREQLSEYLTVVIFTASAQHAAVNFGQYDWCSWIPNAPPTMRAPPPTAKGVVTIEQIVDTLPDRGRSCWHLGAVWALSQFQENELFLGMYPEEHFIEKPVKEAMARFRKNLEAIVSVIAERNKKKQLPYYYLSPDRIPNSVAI
Experimental protocol: 5-LO activity in a cell-free assay (isolated human recombinant 5-LO, 20 µM arachidonic acid)
Type: biochemical
Parameters: made in house; host or cells: Escherichia coli BL21 (pT3-5-LO plasmid)
Assay context: at 10 µM
Measurement name: inhibition at 10 µM

Look at this molecule and give its reported inhibition at 10 µM. `C[C@H]1[C@H](C)CC[C@]2(C)CC[C@]3(C)C(=CC[C@@H]4[C@@]5(C)CC[C@@H](O)[C@](C)(C(=O)O)[C@@H]5CC[C@]43C)[C@H]12`
21 to 26%

Likewise for C[C@H]1[C@H](C)CC[C@]2(C)CC[C@]3(C)C(=C[C@H](O)[C@@H]4[C@@]5(C)CC[C@@H](O)[C@](C)(C(=O)O)[C@@H]5CC[C@]43C)[C@H]12 [compound 19, 11β-hydroxy-β-boswellic acid] ?
< 25%

Moving on to `CC(=O)O[C@@H]1CC[C@@]2(C)[C@@H](CC[C@]3(C)[C@@H]2CC=C2[C@@H]4[C@@H](C)[C@H](C)CC[C@]4(C)CC[C@]23C)[C@@]1(C)C(=O)O`
21 to 26%

Follow-up entry: C[C@H]1[C@H](C)CC[C@]2(C)CC[C@]3(C)C(=C[C@@H](O)[C@@H]4[C@@]5(C)CC[C@@H](O)[C@](C)(C(=O)O)[C@@H]5CC[C@]43C)[C@H]12 [compound 18, 11α-Hydroxy-β-boswellic acid]
< 25%
